The following compounds have recorded Ki on PLK1 (Homo sapiens).
Sequence (P53350 whole entry): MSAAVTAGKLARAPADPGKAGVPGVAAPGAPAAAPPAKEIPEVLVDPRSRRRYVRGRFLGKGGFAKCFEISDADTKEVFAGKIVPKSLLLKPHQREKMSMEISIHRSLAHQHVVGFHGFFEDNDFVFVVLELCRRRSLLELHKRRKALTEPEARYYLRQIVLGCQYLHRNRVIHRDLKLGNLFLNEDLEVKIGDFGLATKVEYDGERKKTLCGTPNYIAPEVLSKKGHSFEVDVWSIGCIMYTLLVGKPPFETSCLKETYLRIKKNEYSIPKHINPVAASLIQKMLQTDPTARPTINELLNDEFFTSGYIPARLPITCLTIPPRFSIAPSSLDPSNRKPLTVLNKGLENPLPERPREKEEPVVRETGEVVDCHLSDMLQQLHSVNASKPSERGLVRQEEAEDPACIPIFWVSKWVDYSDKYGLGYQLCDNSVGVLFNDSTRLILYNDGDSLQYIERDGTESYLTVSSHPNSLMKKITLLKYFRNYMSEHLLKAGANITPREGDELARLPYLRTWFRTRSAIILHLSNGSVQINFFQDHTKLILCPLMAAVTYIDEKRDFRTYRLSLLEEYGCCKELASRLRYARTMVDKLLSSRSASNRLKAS
Structures can show the parent of a compound that is named as a salt.

> print(dat)
                                   compound  quantity.kind  value.observed
1  COc1cc(C(=O)NN2CCCC2)ccc1Nc1ncc2c(n1)N(C1CCCC1)CC1(CC1)C(=O)N2C [Example [I-253] of WO 07/095188, reference compound]             Ki       < 0.01 µM

Moving on to the next compound.
GET /values?readout=Ki&item= COc1cc(C(=O)NN2CCN(C)CC2)ccc1Nc1ncc2c(n1)N(C1CCCC1)CC1(CC1)C(=O)N2C [[254]•HCl]
< 0.01 µM

###

Target: UniProtKB P53350
Test: PLK1 protein kinase assay (CDC25C phosphorylation, [γ-32P]-ATP)
Format: biochemical
Conditions: Table 2, PLK1 IC50; class symbols; read-out: PLK1 IC50
pIC50: −log10 of the molar value.
QUANTITY_KIND: pIC50

Below, each entry is followed by its recorded pIC50 result.
> print(dat)
                                   molecule   subject.of.test  value.observed
1  CCc1cc(C(=O)O)ccc1Nc1ncc2c(n1)N(C1CCCC1)CC1(CC1)C(=O)N2C  UniProtKB P53350          > 6.00
2  CN1C(=O)CCN(C2CCCC2)c2nc(Nc3ccc(N4CCOCC4)cc3)ncc21  UniProtKB P53350          > 6.00
3  COc1ccc(N2CCC(=O)N(C)c3cnc(Nc4ccc(C(=O)NC5CCCN(C)C5)cc4OC)nc32)cc1 (stereo not shown)  UniProtKB P53350          > 6.00
4  CCC1CN(C2CCCC2)c2nc(Nc3ccc(C(=O)O)cc3)ncc2N(C)C1=O (stereo not shown)  UniProtKB P53350          > 6.00
5  COc1ccc(C(=O)NC(C)(C)CN2CCCCC2)cc1Nc1ncc2c(n1)N(C1CCCC1)CCC(=O)N2C  UniProtKB P53350          > 5.00

GET /values?readout=pIC50&item= `COc1ccc(C(=O)NCc2cccn2C)cc1Nc1ncc2c(n1)N(C1CCCC1)CCC(=O)N2C`
> 6.00

# repeat for `COc1cc(C(=O)NC2CCN(C)CC2)ccc1Nc1ncc2c(n1)N(CCC(=O)N(C)C)CCC(=O)N2C`
> 6.00

# repeat for `Cc1cc(C(=O)NC2CCN(C)CC2)ccc1Nc1ncc2c(n1)N(C1CCCC1)CC1(CC1)C(=O)N2C`
> 6.00

# repeat for `COc1cc(C(=O)NCC2CCN(C)CC2)ccc1Nc1ncc2c(n1)N(C1CCCC1)CC1(CC1)C(=O)N2C`
> 7.00

# repeat for `COc1cc(C(=O)NC2CCN(C)CC2)ccc1Nc1ncc2c(n1)N(CC1CC1)CC1(CC1)C(=O)N2C`
> 7.00

###

Target: AA (Homo sapiens, UniProt O14965)
Sequence (O14965 whole entry): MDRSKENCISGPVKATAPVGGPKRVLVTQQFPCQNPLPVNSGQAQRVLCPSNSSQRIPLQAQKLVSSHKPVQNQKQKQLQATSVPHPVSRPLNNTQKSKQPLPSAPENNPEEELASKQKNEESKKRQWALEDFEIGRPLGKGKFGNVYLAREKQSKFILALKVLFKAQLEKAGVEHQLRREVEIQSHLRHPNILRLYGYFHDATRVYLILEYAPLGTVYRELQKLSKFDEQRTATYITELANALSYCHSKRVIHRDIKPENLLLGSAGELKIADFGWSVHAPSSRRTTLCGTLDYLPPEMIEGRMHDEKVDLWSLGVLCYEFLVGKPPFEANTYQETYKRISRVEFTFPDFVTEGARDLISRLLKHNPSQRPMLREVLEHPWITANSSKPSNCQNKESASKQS
Test: AA IC50 (Table 1; no method given)
Assay type: biochemical
Conditions: Table 2, AurA IC50; class symbols; read-out: AurA IC50
QUANTITY_KIND: IC50

> print(dat)
                                   compound                    subject.of.test  value.observed
1  CC(C)CCN1CCC(=O)N(C)c2cnc(Nc3ccc4c(c3)CS(=O)(=O)C4)nc21  AA (Homo sapiens, UniProt O14965)       < 1000 nM

GET /values?readout=IC50&item= `CN1CCC(NC(=O)Cc2ccc(Nc3ncc4c(n3)N(C3CCCC3)CCC(=O)N4C)cc2)CC1`
< 100 nM

# repeat for `CN1C(=O)CCN(C2CCCC2)c2nc(Nc3ccc(S(=O)(=O)NCc4ccccc4)cc3)ncc21`
< 100 nM
